Cited source: PubChem BioAssay (NCI)

- Test system: SF-295 CNS
- assay: NCI-60 one-dose screen, 48 h (100 = growth as untreated, 0 = no growth, -100 = all killed)
- measurementContext: 10 µM
About 83,000 compounds went through this panel and 20% of them were active in at least one assay; those are over-represented in the sample as a whole.
What growth was measured for each of the following?
A number alone suffices; assume %.

Exercise: With SF-295 CNS as the test system, provide measured growth for this compound: O=C(/C=C/c1cc2ccccc2[nH]c1=O)c1ccc2c(c1)OCO2
Key: 100

Exercise: With SF-295 CNS as the test system, provide measured growth for this compound: COc1ccc(Cn2c(C(N)=O)cc3c2-c2nc(N)ncc2CCC3)cc1
Key: 98.3

Exercise: With SF-295 CNS as the test system, provide measured growth for this compound: CO/N=C(/C(=O)NC1C(=O)N2C(C(=O)O)=C(COC(N)=O)CSC12)c1ccco1 (stereo unspecified)
Key: 105

Exercise: With SF-295 CNS as the test system, provide measured growth for this compound: Cc1cc(=O)[nH]c(N/N=C/c2ccccc2O)n1
Key: 43.2

Exercise: With SF-295 CNS as the test system, provide measured growth for this compound: COC(=O)C(=C\c1ccc2c(c1)OCO2)/C(=C/c1ccc2c(c1)OCO2)C(=O)OC
Key: 95.3

Exercise: With SF-295 CNS as the test system, provide measured growth for this compound: CC(=O)OCc1cc(-c2nc3ccccc3[nH]c2=O)nn1-c1ccc(Cl)cc1
Key: 96.5

Exercise: With SF-295 CNS as the test system, provide measured growth for this compound: O=C(O)CN1C(=O)c2cccc3cccc(c23)C1=O
Key: 99.7

Exercise: With SF-295 CNS as the test system, provide measured growth for this compound: CC1CN(Cc2ccccc2)C(=O)NC1=O (stereo unspecified)
Key: 126

Exercise: With SF-295 CNS as the test system, provide measured growth for this compound: CN(C)C=Nc1cc(Cl)ccc1Cl
Key: 97

Exercise: With SF-295 CNS as the test system, provide measured growth for this compound: Nc1nc(N=Nc2ccc(O)cc2)cc(=O)[nH]1
Key: 94.9

Exercise: With SF-295 CNS as the test system, provide measured growth for this compound: COc1cc(Nc2ccnc(NCCNc3ccnc4cc(Cl)ccc34)n2)cc(OC)c1
Key: 39.9

* * *

- Tested on: MALME-3M melanoma
- assay: NCI-60 one-dose screen, 48 h (100 = growth as untreated, 0 = no growth, -100 = all killed)
- measurementContext: 10 µM
About 83,000 compounds went through this panel and 20% of them were active in at least one assay; those are over-represented in the sample as a whole.
endpointLabel: growth (%)
A number alone suffices; assume %.

Exercise: With MALME-3M melanoma as the test system, provide measured growth for this compound: CCN(CC)Cc1cc(Nc2ccnc3cc(Cl)ccc23)ccc1OC
Key: 110

Exercise: With MALME-3M melanoma as the test system, provide measured growth for this compound: C#Cc1ccc(-n2c(/C=C/c3ccc(C(F)(F)F)cc3)nc3ncccc3c2=O)cc1
Key: 39.1

Exercise: With MALME-3M melanoma as the test system, provide measured growth for this compound: CCN(CC)CCSCCN(CC)CC
Key: 106

Exercise: With MALME-3M melanoma as the test system, provide measured growth for this compound: CC(=O)CSC(C)=O
Key: 89.6

Exercise: With MALME-3M melanoma as the test system, provide measured growth for this compound: COc1ccc(C2=Nc3c(C)nn(-c4ccccc4)c3NC(c3ccc(Oc4ccnc5cc(Cl)ccc45)c(OC)c3)C2)cc1 (configuration not stated)
Key: 95.6

Exercise: With MALME-3M melanoma as the test system, provide measured growth for this compound: COc1ccc(Nc2ncnc3c2c(SC)nn3-c2ccccc2)cc1
Key: 93

Exercise: With MALME-3M melanoma as the test system, provide measured growth for this compound: CN(C)C=Nc1cc(Cl)ccc1Cl
Key: 118

Exercise: With MALME-3M melanoma as the test system, provide measured growth for this compound: CS(=O)(=O)Nc1ccc(Nc2c3ccccc3nc3cc([N+](=O)[O-])ccc23)cc1
Key: 22.6

Exercise: With MALME-3M melanoma as the test system, provide measured growth for this compound: CN(C)c1ccc(-c2cc(-c3cccc(NS(C)(=O)=O)c3)nc(N)c2C#N)cc1
Key: -7.09

Exercise: With MALME-3M melanoma as the test system, provide measured growth for this compound: O=C1/C(=C\c2ccccc2)CN(C(=O)c2ccccc2F)C/C1=C\c1ccccc1
Key: -34.5

Exercise: With MALME-3M melanoma as the test system, provide measured growth for this compound: CC1CC(=O)OC(C)C1 (configuration not stated)
Key: 98.7

Exercise: With MALME-3M melanoma as the test system, provide measured growth for this compound: CN(C)c1ccc(N=C2C=CC(=O)c3ccccc32)cc1
Key: -11.2
